TARGET OR SYSTEM: Integrin alpha-v beta-3 (UniProt P06756;P05106 P06756:31-992,P05106:27-718)
Sequence (P06756 31-992, chain 1 of 2): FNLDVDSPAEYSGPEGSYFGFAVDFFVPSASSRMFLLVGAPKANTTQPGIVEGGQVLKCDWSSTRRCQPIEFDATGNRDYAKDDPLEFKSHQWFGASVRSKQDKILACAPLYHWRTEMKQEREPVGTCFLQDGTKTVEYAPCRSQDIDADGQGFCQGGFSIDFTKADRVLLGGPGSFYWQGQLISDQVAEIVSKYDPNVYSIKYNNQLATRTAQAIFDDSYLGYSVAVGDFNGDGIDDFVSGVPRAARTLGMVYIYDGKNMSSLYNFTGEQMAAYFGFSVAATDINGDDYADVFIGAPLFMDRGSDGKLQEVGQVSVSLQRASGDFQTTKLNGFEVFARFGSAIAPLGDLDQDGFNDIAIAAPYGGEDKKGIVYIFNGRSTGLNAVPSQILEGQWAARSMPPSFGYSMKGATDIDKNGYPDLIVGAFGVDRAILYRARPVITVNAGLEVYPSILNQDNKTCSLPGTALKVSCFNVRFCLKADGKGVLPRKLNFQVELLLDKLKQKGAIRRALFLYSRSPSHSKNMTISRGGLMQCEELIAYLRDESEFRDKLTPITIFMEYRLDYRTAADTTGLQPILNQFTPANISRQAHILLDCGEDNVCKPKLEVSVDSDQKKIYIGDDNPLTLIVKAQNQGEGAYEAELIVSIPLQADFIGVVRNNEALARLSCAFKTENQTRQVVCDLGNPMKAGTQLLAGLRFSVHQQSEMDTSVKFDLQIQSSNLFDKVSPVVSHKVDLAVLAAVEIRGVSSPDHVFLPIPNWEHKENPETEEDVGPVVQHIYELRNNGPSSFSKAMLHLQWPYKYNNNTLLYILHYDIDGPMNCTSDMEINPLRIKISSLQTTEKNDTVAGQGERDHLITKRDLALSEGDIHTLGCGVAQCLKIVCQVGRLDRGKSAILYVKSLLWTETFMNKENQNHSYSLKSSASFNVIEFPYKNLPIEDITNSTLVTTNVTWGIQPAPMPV
Sequence (P05106 27-718, chain 2 of 2): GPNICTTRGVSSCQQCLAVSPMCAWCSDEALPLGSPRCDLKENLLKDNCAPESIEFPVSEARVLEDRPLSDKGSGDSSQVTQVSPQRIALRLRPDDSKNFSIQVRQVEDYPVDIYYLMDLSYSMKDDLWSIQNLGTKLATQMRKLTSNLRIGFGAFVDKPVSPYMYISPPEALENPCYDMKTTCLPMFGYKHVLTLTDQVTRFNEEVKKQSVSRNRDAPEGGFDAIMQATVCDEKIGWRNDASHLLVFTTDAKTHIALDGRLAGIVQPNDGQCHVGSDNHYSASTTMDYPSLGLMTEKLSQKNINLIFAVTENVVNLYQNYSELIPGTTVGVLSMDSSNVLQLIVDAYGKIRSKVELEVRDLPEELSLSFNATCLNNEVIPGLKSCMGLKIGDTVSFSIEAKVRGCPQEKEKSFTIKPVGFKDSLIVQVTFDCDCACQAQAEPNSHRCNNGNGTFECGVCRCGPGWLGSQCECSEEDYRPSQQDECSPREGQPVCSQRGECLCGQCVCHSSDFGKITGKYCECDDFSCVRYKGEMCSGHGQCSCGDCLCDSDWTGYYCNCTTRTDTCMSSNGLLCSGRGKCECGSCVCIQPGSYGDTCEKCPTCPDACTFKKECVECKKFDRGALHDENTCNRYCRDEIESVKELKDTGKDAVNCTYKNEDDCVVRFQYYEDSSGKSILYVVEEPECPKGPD
EXPERIMENT DESCRIPTION: filter; Bmax 0.56; HEPES, NaCl, KCl, MgCl2 buffer, 37 C
MEASUREMENT PARAMETERS: tags: R&D Systems 3050-AV
Procedure: 20,000 cpm of the labeled DNA pool were put in 100 μL 1×SB buffer (200 mM HEPES, 510 mM NaCl, 25 mM KCl, 25 mM MgCl₂), and slowly cooled from 95° C. to 37° C. at a rate of 0.1° C./sec. […] The filter plate was exposed to an image plate overnight, and then, images were quantified with FLA-5100 (Fuji). […]
ASSAY METRIC: pKd
Note: pKd values are expressed as the negative base-10 logarithm of concentration in M.

Request: Consider the binder Clone #11 (S003-A4-011-T7_C02), full length (ssDNA, n in core = 5-(N-benzylaminocarbonyl)-2'-deoxyuridine (BzdU) [n positions 19,20,21,22,25,27,28,30,32,34,39,43,46,51,53,55 = modified dU]) DNA: TCAGCCGCCAGCCAGTTCTTTTAATCTTCTCTGTCAGATGGCTGGTAGGGTGTATGACGACCAGAGCACCACAGAG and give its measured pKd.
Response: 7.42

Values from patent US20150359911
